Data credit: ChEMBL document CHEMBL1140302

# Test system: HL-60
# experimentDescription: Percent apoptotic activity of compound in human acute myelocytic leukemia HL-60 cells at 10 uM for 16 h
# Type: functional
measuredEndpoint: Apoptotic Activity (%)
// return numeric value only (unit: %, not printed)

>>> print(df.to_string())
                          structurenotation    measuredendpoint  experimentalresult
0  CN(C)C(=O)OC1=C(c2cccc3ccccc23)Oc2ccccc2[N+]2=C1CC=C2  Apoptotic Activity                  44
1  CCOC(=O)c1ccc2c(c1)OC(c1cccc3ccccc13)=C(OC(=O)N(C)C)C1=[N+]2C=CC1  Apoptotic Activity                  49

*Q* // lookup Apoptotic Activity for "CN(C)C(=O)OC1=C(c2ccc3ccccc3c2)Oc2ccccc2[N+]2=C1CC=C2"
*A* 0
